- TARGET_OR_SYSTEM: T1, TACC3 629–838 (human, UniProt Q9Y6A5 629-838)
- T1 construct: human TACC3, TACC domain, residues 629-838; For MST the protein was fluorescently labelled via NHS coupling (NHS Red labelling kit, Nanotemper); Construct from Hood et al., 2013; also called TACC3 TACC domain; TACC3 TD; not shown: His, N-terminal, cleaved; NusA, N-terminal, cleaved
- MEASUREMENT_DESCRIPTION: MST; NHS Red labelled TACC domain at 600 nM, H5 peptide 0–400 μM; 20 mM sodium phosphate, 50 mM NaCl, 2 mM DTT, 0.05% Tween, 0.02% NaN3; one-site specific binding model
- CONDITION_DETAILS: both partners purified
MEASURED_PARAMETER: pKd
Value format note: pKd is -log10 of concentration (mol/L); just state the number.

input: Need pKd of EVGPSVYLERLKILRQRCG (human ch-TOG/CKAP5 helix H5, residues 1929-1947; source: synthetic peptide) [synthetic ch-TOG H5 peptide (residues 1929–1947)] , thanks.
output: 4.76
